Target: Coagulation factor XI (Homo sapiens) (UniProt P03951)
Sequence (P03951 19-387 limits assumed): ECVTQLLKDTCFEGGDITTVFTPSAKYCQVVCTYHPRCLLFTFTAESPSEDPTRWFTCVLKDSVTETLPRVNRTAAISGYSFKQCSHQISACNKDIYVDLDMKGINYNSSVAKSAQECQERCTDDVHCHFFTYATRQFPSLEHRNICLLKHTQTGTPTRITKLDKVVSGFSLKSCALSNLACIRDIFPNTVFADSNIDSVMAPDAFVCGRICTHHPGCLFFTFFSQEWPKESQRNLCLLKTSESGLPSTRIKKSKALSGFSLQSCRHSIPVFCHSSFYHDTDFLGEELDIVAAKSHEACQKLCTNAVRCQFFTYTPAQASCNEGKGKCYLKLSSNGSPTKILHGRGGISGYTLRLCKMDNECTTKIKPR
Sequence (P03951 388-625 limits assumed): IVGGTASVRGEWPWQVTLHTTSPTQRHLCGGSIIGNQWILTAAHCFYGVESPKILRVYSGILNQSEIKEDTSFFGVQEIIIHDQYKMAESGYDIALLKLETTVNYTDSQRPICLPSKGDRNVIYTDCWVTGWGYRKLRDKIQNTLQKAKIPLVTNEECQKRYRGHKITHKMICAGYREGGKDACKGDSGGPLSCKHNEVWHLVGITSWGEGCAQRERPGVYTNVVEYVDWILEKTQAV
Assay: FXIa protease inhibitors in compound pools, primary screen, biochemical, 10-compound mixtures (AID 680);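 note: each value is inhibition by a whole ten-compound pool holding the compound; 0% = enzyme with no mixture and 100% = wells lacking enzyme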
Details: purified FXIa, fluorogenic substrate, pooled mixtures; at 5 µM; stronger effect = higher value
About 120 (0.19%) of roughly 62,000 compounds were called active. For the sample, actives were picked, then their nearest neighbours and some compounds at random.
measurement-kind: inhibition (%)
Please reply with the bare figure in % and do not write the unit itself.

*Q* Which inhibition value is on record for CCn1cc(C(=O)NCC2CCCO2)c(=O)c2cc(S(=O)(=O)N3CCCCC3)ccc21 (stereo not drawn) ?
*A* 2.28

*Q* Can you look up the measured inhibition of `CC(C)CCNC(=O)CCNS(=O)(=O)c1ccc(Cl)cc1` for me?
*A* 6.13

*Q* Which inhibition value belongs to CC1CN(c2cc(=O)n(-c3cccc(Br)c3)c(=O)[nH]2)CC(C)O1 (stereo not drawn) ?
*A* 6.23

*Q* # query: inhibition of entry CCSC(C)CC1C/C(=N/O)c2c(C)noc2C1 (stereo not drawn)
*A* 0.87

*Q* Looking for the measured inhibition of `COC(=O)c1ccc(CN(c2ccccc2OC)S(=O)(=O)c2cccs2)o1` , can you help?
*A* -7.66

*Q* Can you look up the measured inhibition of `Cc1nonc1OCCn1nnnc1N` for me?
*A* -1.41

*Q* May I ask what inhibition has been recorded for `CCOC(=O)N1CCC(Nc2c(NCCCN3CCN(c4ccc(OC)cc4)CC3)c(=O)c2=O)CC1` ?
*A* 12.6

*Q* Any idea what inhibition was measured for CCC(=O)c1ccc(OCC(O)CN2C(=O)NC(C)(C)C2=O)cc1 (stereo not drawn) ?
*A* 11.4

*Q* Requested field: inhibition. Item: `CCOC(=O)CSc1nnc(CNC(=O)Cc2ccccc2)n1-c1ccccc1OC`
*A* 13.1

*Q* Entry under review: O=C(CSC1=Nc2ccccc2C2=NC(c3ccccc3)C(=O)N12)NCC1CCCO1 (stereo not drawn) . Reported inhibition?
*A* 2.26

*Q* Which inhibition value is on record for `CCc1ccc(-c2nnn(Cc3nc4ccccc4s3)n2)cc1` ?
*A* 9.76

*Q* For the compound `COc1ccc(NC(=O)c2c(SC)nsc2SC)cc1` , what inhibition is on record?
*A* 4.24

*Q* May I ask what inhibition has been recorded for `CC1(C)Oc2ccc(C(=O)N3CCOCC3)cc2N(CC(=O)Nc2ccccc2)C1=O` ?
*A* 7.31

*Q* If you can, please state the reported inhibition value of CN(C)CCNC(CC(=O)Nc1ccc(Cl)c(Cl)c1)C(=O)O (stereo not drawn) .
*A* 0.68

*Q* inhibition lookup needed for O=C(Cn1nc(Cc2cccnc2)c2ccccc2c1=O)NCC1CCCO1 (stereo not drawn) , thanks.
*A* 1.16

*Q* Would you kindly share the measured inhibition for `O=C(CSc1nnc(-c2ccco2)o1)NCC(=O)c1ccccc1` ?
*A* 10.1

*Q* Any idea what inhibition was measured for `CCc1nnc(NC(=O)c2cccs2)s1` ?
*A* 5.55

*Q* Name the recorded inhibition for `C=CCNC(=O)C12CC3CC(C1)CC(C(=O)NCC=C)(C3)C2` .
*A* 4.77

*Q* Which measured inhibition value corresponds to `CN(C)CCCNC(=O)c1ccc2[nH]c3ccccc3c2c1` ?
*A* 3.52

*Q* May I ask what inhibition has been recorded for `CCOC(=O)c1sc(/N=C/Nc2nc(C)c(C(=O)OCC)s2)nc1C` ?
*A* 5.51

*Q* Recorded inhibition of `Cc1ccc2nc(NCCCNC(=O)c3cnccn3)c(C#N)cc2c1` , please.
*A* -0.515

*Q* Quick one: inhibition of `Brc1cccc(-c2nnc3n2CCC3)c1` ?
*A* 2.48

*Q* # input compound: `O=c1c(-c2ccccc2)coc2c(CN3CCOCC3)c(O)ccc12` ; wanted: its inhibition
*A* -0.725
